FYI, the data here is from patent US8937091B2.

- System: IICR (IP3 induced calcium release) in CHO cells
- Method notes: Assay of IICR (IP3 induced calcium release)-inhibiting action
- Type: cell-based, Chinese hamster
- Study conditions: Cricetulus griseus, CHO, test compound 30 μmol; CHO cells, 10 μM ATP; read-out: IICR level (percentage of inhibition)
Is inhibition at 30 µM at least 30%? Then yes (1). If not, no (0).

Given the entry C=CC(=O)c1ccco1 [Example 171, 2-furyl vinylketone] , answer whether its inhibition at 30 µM meets or surpasses 30%.
no (0)

Form field: inhibition at 30 µM at least 30%? Entry: O=C(CCN(CCO)Cc1ccccc1)c1cccs1 [Example 245]
no (0)

Hi, just wondering whether CC(C)N(CCO)CCC(=O)c1ccccn1 [Example 154] shows inhibition at 30 µM of 30% or higher.
no (0)

hey, is inhibition at 30 µM for this one >= 30%? CC(C)N(CCC(=O)c1cccnc1)Cc1ccccc1 [Example 106]
yes (1)

Hi, just wondering whether CC(C)N(CCC(=O)c1ccc(F)cc1)Cc1ccccc1 [Example 212] shows inhibition at 30 µM of 30% or higher.
yes (1)

Decide: inhibition at 30 µM of CN(CCO)CCC(=O)c1nccs1 [Example 291] >= 30%?
yes (1)

Quick check, inhibition at 30 µM >= 30%? CC(C)N(CCO)CCC(=O)c1ccc(F)cc1 [Example 166]
no (0)

Has C=CC(=O)c1cccc2ccccc12 [Example 68, 1-acryloylnaphthalene] a recorded inhibition at 30 µM greater than or equal to 30%?
yes (1)

Hello, I need to know if Cc1nc(C)c(C(=O)CCNCCNCCO)s1 [Example 220] has measured inhibition at 30 µM not below 30%. Thanks!
yes (1)
